- Test system: PPARg:RXRa IVT, anti-PPARg (NR concentration 270 nM, RXRa partner concentration 90 nM)
- assay.overview: PBM binding z-score (relative to random genomic background probes); higher = stronger binding; sequences stand for … in GC…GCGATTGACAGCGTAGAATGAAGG
Rule: PBM binding z-score of 8 or more gives Criterion met; anything lower gives Criterion not met.

Enquiry: hey, is PBM binding z-score for this one >= 8? CCTAGTTGGTCACGAGGTCACACACCGGATATGA
Return: Criterion not met

Enquiry: Decide: PBM binding z-score of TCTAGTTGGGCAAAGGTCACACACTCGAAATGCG >= 8?
Return: Criterion not met

Enquiry: Does the sequence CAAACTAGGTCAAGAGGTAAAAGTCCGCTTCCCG have recorded PBM binding z-score that is 8 or more?
Return: Criterion met

Enquiry: Decide: is the reported value of PBM binding z-score for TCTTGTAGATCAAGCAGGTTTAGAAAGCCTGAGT equal to or greater than 8?
Return: Criterion not met

# credit: the supplement of paper PMC6555819
